conditions: in ethanol, 308.2 K
parameter: solubility (mole fraction)
// return a plain number; no unit text

For O=c1cc(-c2ccccc2)oc2c1ccc1ccccc12 , what is its reported solubility (mole fraction)?
0.00197

----------
conditions: in n-propanol, 313.2 K
parameter: solubility (mole fraction)

For O=c1cc(-c2ccccc2)oc2c1ccc1ccccc12 , what is its reported solubility (mole fraction)?
0.00424

----------
settings: in methanol, 313.2 K
parameter: solubility (mole fraction)

For O=c1cc(-c2ccccc2)oc2c1ccc1ccccc12 , what is its reported solubility (mole fraction)?
0.00335

----------
settings: in n-propanol, 293.2 K
parameter: solubility (mole fraction)
// return a plain number; no unit text

For O=c1cc(-c2ccccc2)oc2c1ccc1ccccc12 , what is its reported solubility (mole fraction)?
0.00218

----------
details: in n-propanol, 288.2 K
parameter: solubility (mole fraction)
// return a plain number; no unit text

For O=c1cc(-c2ccccc2)oc2c1ccc1ccccc12 , what is its reported solubility (mole fraction)?
0.00178

----------
conditions: in isobutanol, 308.15 K
parameter: solubility (mole fraction)
// return a plain number; no unit text

For O=c1cc(-c2ccccc2)oc2c1ccc1ccccc12 , what is its reported solubility (mole fraction)?
0.00396

----------
conditions: in n-propanol, 303.2 K
parameter: solubility (mole fraction)
// return a plain number; no unit text

For O=c1cc(-c2ccccc2)oc2c1ccc1ccccc12 , what is its reported solubility (mole fraction)?
0.0031

----------
settings: in n-propanol, 298.2 K
parameter: solubility (mole fraction)
// return a plain number; no unit text

For O=c1cc(-c2ccccc2)oc2c1ccc1ccccc12 , what is its reported solubility (mole fraction)?
0.00261

----------
details: in n-butanol, 278.15 K
parameter: solubility (mole fraction)

For O=c1cc(-c2ccccc2)oc2c1ccc1ccccc12 , what is its reported solubility (mole fraction)?
0.00149

----------
details: in cyclohexane, 288.15 K
parameter: solubility (mole fraction)
// return a plain number; no unit text

For O=c1cc(-c2ccccc2)oc2c1ccc1ccccc12 , what is its reported solubility (mole fraction)?
0.000189

----------
details: in ethanol, 303.2 K
parameter: solubility (mole fraction)
// return a plain number; no unit text

For O=c1cc(-c2ccccc2)oc2c1ccc1ccccc12 , what is its reported solubility (mole fraction)?
0.00163

----------
conditions: in isobutanol, 288.15 K
parameter: solubility (mole fraction)
// return a plain number; no unit text

For O=c1cc(-c2ccccc2)oc2c1ccc1ccccc12 , what is its reported solubility (mole fraction)?
0.0019

----------
conditions: in 1,4-dioxane, 313.15 K
parameter: solubility (mole fraction)
// return a plain number; no unit text

For O=c1cc(-c2ccccc2)oc2c1ccc1ccccc12 , what is its reported solubility (mole fraction)?
0.0307

----------
settings: in n-butanol, 318.15 K
parameter: solubility (mole fraction)
// return a plain number; no unit text

For O=c1cc(-c2ccccc2)oc2c1ccc1ccccc12 , what is its reported solubility (mole fraction)?
0.00673

----------
details: in ethyl acetate, 318.15 K
parameter: solubility (mole fraction)
// return a plain number; no unit text

For O=c1cc(-c2ccccc2)oc2c1ccc1ccccc12 , what is its reported solubility (mole fraction)?
0.0109

----------
details: in ethanol, 288.2 K
parameter: solubility (mole fraction)
// return a plain number; no unit text

For O=c1cc(-c2ccccc2)oc2c1ccc1ccccc12 , what is its reported solubility (mole fraction)?
0.000892

Data provenance is BigSolDB 2.1.
